Molecular target: T1, human TREM2 (human, UniProt Q9NZC2 19-174, limits assumed)
T1 construct: also called triggering receptor expressed on myeloid cells 2
T1 sequence: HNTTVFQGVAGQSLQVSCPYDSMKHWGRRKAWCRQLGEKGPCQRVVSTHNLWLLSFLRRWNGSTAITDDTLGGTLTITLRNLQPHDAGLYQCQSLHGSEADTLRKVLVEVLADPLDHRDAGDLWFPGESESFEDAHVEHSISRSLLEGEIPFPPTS
Experiment: 2nd screen 10 nM
Provide the reported Binding Signal (fold over 6E7 Parental antibody) of each item.
// units = fold; emit number, no label

For V38 (antibody, V domains shown) VH: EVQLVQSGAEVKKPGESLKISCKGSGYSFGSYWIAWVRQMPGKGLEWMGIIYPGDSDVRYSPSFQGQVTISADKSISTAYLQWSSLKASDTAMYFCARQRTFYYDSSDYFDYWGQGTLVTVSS VL: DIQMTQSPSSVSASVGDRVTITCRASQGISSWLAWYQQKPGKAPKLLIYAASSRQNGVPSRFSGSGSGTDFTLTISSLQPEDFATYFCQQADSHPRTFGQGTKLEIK , what is its reported Binding Signal (fold over 6E7 Parental antibody)?
4.36

Reported Binding Signal (fold over 6E7 Parental antibody), binder V89 (antibody, V domains shown) VH: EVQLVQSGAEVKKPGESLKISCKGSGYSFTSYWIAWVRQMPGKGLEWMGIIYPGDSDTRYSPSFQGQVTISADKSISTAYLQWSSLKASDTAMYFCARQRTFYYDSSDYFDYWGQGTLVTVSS VL: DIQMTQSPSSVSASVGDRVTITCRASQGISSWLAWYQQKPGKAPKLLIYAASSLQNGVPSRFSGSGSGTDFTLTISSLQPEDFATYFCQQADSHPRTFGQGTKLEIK : ____
1.46

Value lookup for Binding Signal (fold over 6E7 Parental antibody); key = V85 (antibody, V domains shown) VH: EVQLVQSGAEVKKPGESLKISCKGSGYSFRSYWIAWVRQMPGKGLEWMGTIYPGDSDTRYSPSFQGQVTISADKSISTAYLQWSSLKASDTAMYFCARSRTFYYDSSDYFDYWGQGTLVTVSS VL: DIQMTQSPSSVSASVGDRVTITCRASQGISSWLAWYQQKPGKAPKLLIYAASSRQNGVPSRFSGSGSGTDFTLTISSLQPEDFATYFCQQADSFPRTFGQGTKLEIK
5.37
